Conditions: human gut metagenome, 24 h, 2 µM; also: call rule not given here
ASSAY_METRIC: Bacterial Biotransformation

Worked set:
CN/C(=N/CCSCc1nc[nH]c1C)NC#N :: Compound metabolized
Nc1c2c(nc3ccccc13)CCCC2 :: Compound metabolized
CCc1nn(CCCN2CCN(c3cccc(Cl)c3)CC2)c(=O)n1CCOc1ccccc1 :: Compound metabolized
COc1c(C)c2c(c(O)c1C/C=C(\C)CCC(=O)OCCN1CCOCC1)C(=O)OC2 [MYCOPHENOLATE MOFETIL] :: Compound metabolized
COc1ccccc1OCC(O)COC(N)=O (centres undefined) :: Compound NOT metabolized

Ask: # lookup: Bacterial Biotransformation of `C#C[C@]1(O)CC[C@H]2[C@@H]3CCC4=CC(=O)CC[C@@H]4[C@H]3CC[C@@]21CC`
Result: Compound metabolized

Ask: Find the recorded Bacterial Biotransformation belonging to NC(CO)(CO)CO.O=C(c1ccccc1)c1ccc2n1CCC2C(=O)O (centres undefined) and report it.
Result: Compound metabolized

Ask: Bacterial Biotransformation for O=C(O)COCCN1CCN(C(c2ccccc2)c2ccc(Cl)cc2)CC1 (centres undefined) ?
Result: Compound metabolized

Ask: Name the reported Bacterial Biotransformation value associated with the molecule `COc1ccc2c(c1OC)C(=O)O[C@@H]2[C@H]1c2c(cc3c(c2OC)OCO3)CCN1C`
Result: Compound NOT metabolized

###

Conditions: human gut metagenome, 24 h, 2 µM
ASSAY_METRIC: Bacterial Biotransformation

OC(Cn1cncn1)(Cn1cncn1)c1ccc(F)cc1F [FLUCONAZOLE] :: Compound metabolized
CCCc1nc(C(C)(C)O)c(C(=O)OCc2oc(=O)oc2C)n1Cc1ccc(-c2ccccc2-c2nnn[nH]2)cc1 [OLMESARTAN MEDOXOMIL] :: Compound metabolized
O=C(O)CCc1nc(-c2ccccc2)c(-c2ccccc2)o1 [OXAPROZIN] :: Compound metabolized

###

Details: human gut metagenome, 24 h, 2 µM
ASSAY_METRIC: Bacterial Biotransformation

Past entries and their recorded results:
CC(=O)O[C@]1(C(C)=O)CC[C@H]2[C@@H]3C=C(Cl)C4=CC(=O)[C@@H]5C[C@@H]5[C@]4(C)[C@H]3CC[C@@]21C [CYPROTERONE ACETATE] :: Compound metabolized
N#Cc1ccc(C(c2ccc(C#N)cc2)n2cncn2)cc1 [LETROZOLE] :: Compound NOT metabolized
CCN(CC)CCOC(=O)C(Cc1cccc2ccccc12)CC1CCCO1.O=C(O)C(=O)O (stereo not given) [NAFRONYL OXALATE] :: Compound metabolized
CCc1nc(N)nc(N)c1-c1ccc(Cl)cc1 [PYRIMETHAMINE] :: Compound NOT metabolized
O=C(CCCN1CCC(O)(c2ccc(Cl)cc2)CC1)c1ccc(F)cc1 [HALOPERIDOL] :: Compound NOT metabolized
COC(=O)Nc1nc2ccc(C(=O)c3ccccc3)cc2[nH]1 [MEBENDAZOLE] :: Compound NOT metabolized

Ask: Consider the compound shown here: CC[C@H](C)C(=O)O[C@H]1C[C@@H](C)C=C2C=C[C@H](C)[C@H](CC[C@@H]3C[C@@H](O)CC(=O)O3)[C@H]21 [LOVASTATIN] What is its recorded Bacterial Biotransformation?
Result: Compound NOT metabolized

###

Test: The drug is tested on Z-026 corresponding to metagenome with ENA study accession number: PRJEB37062 and ENA sample accession number: ERS12561825 for biotransformation under anaerobic condition. The drug concentrations were measured over 9 timepoints collected between 0 and 24 hours of incubation by liquid-chromatography-coupled mass spectrometry (LC–MS)
Conditions: 2 µM
ASSAY_METRIC: Bacterial Biotransformation

CC(C)c1c(C(=O)Nc2ccccc2)c(-c2ccccc2)c(-c2ccc(F)cc2)n1CC[C@@H](O)C[C@@H](O)CC(=O)O :: Compound NOT metabolized
O=C1NCC2(CCN(CCc3ccccc3)CC2)O1 [FENSPIRIDE] :: Compound NOT metabolized
C=CCN1CC[C@]23c4c5ccc(O)c4O[C@H]2C(=O)CC[C@@]3(O)[C@H]1C5 :: Compound NOT metabolized
CCCCC1=NC2(CCCC2)C(=O)N1Cc1ccc(-c2ccccc2-c2nnn[nH]2)cc1 :: Compound NOT metabolized
Fc1ccc([C@@H]2CCNC[C@H]2COc2ccc3c(c2)OCO3)cc1 :: Compound NOT metabolized

Ask: # input compound: C[C@@H](CO)NC(=O)[C@@H]1C=C2c3cccc4[nH]cc(c34)C[C@H]2N(C)C1.O=C(O)/C=C\C(=O)O [ERGONOVINE MALEATE] ; wanted: its Bacterial Biotransformation
Result: Compound NOT metabolized

Ask: Need Bacterial Biotransformation of `CCOC(=O)[C@H](CCc1ccccc1)N[C@@H](C)C(=O)N1[C@H](C(=O)O)C[C@H]2CCCC[C@@H]21` , thanks.
Result: Compound NOT metabolized

Ask: Quick one: Bacterial Biotransformation for CC(C(=O)O)c1ccc2c(c1)Cc1cccnc1O2 (centres undefined) ?
Result: Compound NOT metabolized

Ask: Consider the compound shown here: COCCc1ccc(OCC(O)CNC(C)C)cc1.COCCc1ccc(OCC(O)CNC(C)C)cc1.O=C(O)C(O)C(O)C(=O)O (centres undefined) [METOPROLOL TARTRATE] What is its recorded Bacterial Biotransformation?
Result: Compound NOT metabolized

Ask: Bench note: what Bacterial Biotransformation did `CN1CC(=O)N2[C@H](c3ccc4c(c3)OCO4)c3[nH]c4ccccc4c3C[C@@H]2C1=O` show?
Result: Compound NOT metabolized

###

Settings: human gut metagenome, 24 h, 2 µM
ASSAY_METRIC: Bacterial Biotransformation

CC[C@@H](CO)NC(=O)[C@@H]1C=C2c3cccc4c3c(cn4C)C[C@H]2N(C)C1.O=C(O)/C=C\C(=O)O [METHYSERGIDE MALEATE] :: Compound NOT metabolized
O=c1n(CCCN2CCN(c3cccc(Cl)c3)CC2)nc2ccccn12 :: Compound NOT metabolized
CC(C)(C)NC[C@H](O)COc1ccccc1C1CCCC1.CC(C)(C)NC[C@H](O)COc1ccccc1C1CCCC1.O=S(=O)(O)O [PENBUTOLOL SULFATE] :: Compound NOT metabolized

###

Experiment: The drug is tested on WLS-082 corresponding to human gut metagenome with ENA study accession number: PRJEB37062 and ENA sample accession number: ERS12561751 for biotransformation under anaerobic condition. The drug concentrations were measured over 9 timepoints collected between 0 and 24 hours of incubation by liquid-chromatography-coupled mass spectrometry (LC–MS)
Settings: 2 µM
ASSAY_METRIC: Bacterial Biotransformation

CCC(COC(=O)c1cc(OC)c(OC)c(OC)c1)(c1ccccc1)N(C)C.O=C(O)/C=C\C(=O)O (centres undefined) :: Compound metabolized
CCOC(=O)[C@H](CCc1ccccc1)N[C@@H](C)C(=O)N1[C@H](C(=O)O)C[C@H]2CCCC[C@@H]21 :: Compound metabolized
CCOC(=O)[C@H](CCc1ccccc1)N[C@H]1CCc2ccccc2N(CC(=O)O)C1=O :: Compound metabolized
COC(=O)[C@H]1[C@H]2C[C@@H]3c4[nH]c5cc(OC)ccc5c4CCN3C[C@H]2C[C@@H](OC(=O)c2cc(OC)c(OC)c(OC)c2)[C@@H]1OC :: Compound metabolized
CN1C(=O)CCS(=O)(=O)C1c1ccc(Cl)cc1 (centres undefined) :: Compound NOT metabolized

Ask: For the molecule shown here, CCC1(c2ccc(N)cc2)CCC(=O)NC1=O (centres undefined) [AMINOGLUTETHIMIDE] , give the reported Bacterial Biotransformation.
Result: Compound NOT metabolized

Ask: Reported Bacterial Biotransformation, molecule CS(=O)(=O)O.OC(CCN1CCCCC1)(c1ccccc1)c1ccccc1 [PRIDINOL METHANESULFONATE] : ____
Result: Compound NOT metabolized

Ask: Fill in the blank: the reported Bacterial Biotransformation of `C=CCN1CC[C@]23c4c5ccc(O)c4O[C@H]2C(=O)CC[C@@]3(O)[C@H]1C5` is ____.
Result: Compound NOT metabolized

Ask: # Bacterial Biotransformation lookup, item O=C(O)COCCN1CCN(C(c2ccccc2)c2ccc(Cl)cc2)CC1 (centres undefined)
Result: Compound metabolized

Ask: # Bacterial Biotransformation lookup, item `CC[C@H](C)C(=O)O[C@H]1C[C@@H](C)C=C2C=C[C@H](C)[C@H](CC[C@@H]3C[C@@H](O)CC(=O)O3)[C@H]21`
Result: Compound NOT metabolized

Ask: What Bacterial Biotransformation value was documented for this molecule, `COc1ccc2c(c1OC)C(=O)O[C@@H]2[C@H]1c2c(cc3c(c2OC)OCO3)CCN1C` ?
Result: Compound NOT metabolized

Ask: May I ask what Bacterial Biotransformation has been recorded for `Cc1cc2c(cc1S(N)(=O)=O)S(=O)(=O)CCC2` ?
Result: Compound NOT metabolized

Ask: # Bacterial Biotransformation lookup, item COc1c(C)c2c(c(O)c1C/C=C(\C)CCC(=O)OCCN1CCOCC1)C(=O)OC2 [MYCOPHENOLATE MOFETIL]
Result: Compound metabolized

Ask: // returns reported Bacterial Biotransformation for input `COC(=O)Nc1nc2ccc(C(=O)c3ccccc3)cc2[nH]1`
Result: Compound metabolized

Ask: Which measured Bacterial Biotransformation value corresponds to CCN(CC)CCNC(C(=O)OCCC(C)C)c1ccccc1.Cl.Cl (centres undefined) ?
Result: Compound metabolized
